The following molecules are listed with their measured Emax values.
Target: oxytocin receptor (OXTR), hOTR (Homo sapiens)
Construct: expressed in transfected cells
Experiment: IP1 accumulation assay, OTR-expressing HEK-293 cells (agonist and antagonist assessment)
Format: cell-based
Details: HEK293; read-out: OXTR Emax (% OXT)
measuredMetric: Emax (%)

1. Cn1ncc2c1Nc1ccccc1N(C(=O)c1cccnc1)C2 :: 9.67
2. COc1cccc(C(=O)N2Cc3cnn(C)c3Nc3ccccc32)c1 :: 4.99
3. Cc1cccc(C(=O)N2Cc3cnn(C)c3Nc3ccccc32)c1 :: 16.8
4. Cc1cc(C(=O)N2Cc3cnn(C)c3Nc3ccccc32)ccc1CN :: 8
5. Cn1ncc2c1Nc1ccccc1N(C(=O)C1CCCC1)C2 :: 10
6. Cn1ncc2c1Nc1ccccc1N(C(=O)c1ccc(C(F)(F)F)cc1)C2 :: 7.72
7. Cc1ccc(C(=O)N2Cc3cnn(C)c3Nc3ccccc32)cc1 :: 9.54
8. Cc1ccc(C(=O)N2Cc3cnn(C)c3Nc3ccccc32)cc1F :: 11.3
9. Cc1cc(C(=O)N2Cc3cnn(C)c3Nc3ccccc32)ccc1CNC(=O)N1CCN(Cc2cc(O)cc(O)c2)CC1 [WAY, reference compound] :: 45
10. Cn1ncc2c1Nc1ccccc1N(C(=O)c1cc(F)cc(F)c1)C2 :: 10.9
11. Cn1ncc2c1Nc1ccccc1N(C(=O)c1ccccc1)C2 :: 11.9
12. Cn1ncc2c1Nc1ccccc1N(C(=O)C1CCCCC1)C2 :: 17
13. Cn1ncc2c1Nc1ccccc1N(C(=O)C13CC4CC(CC(C4)C1)C3)C2 :: 33.3

---

The following compounds are listed with their measured pEC50 values.
Target: UniProt:P30559
Experiment: IP1 accumulation assay, OTR-expressing HEK-293 cells (agonist and antagonist assessment)
Details: agonist assessment, IP1, 1 h
pEC50: −log10 of the molar value.
measuredMetric: pEC50

1. Cn1ncc2c1Nc1ccccc1N(C(=O)c1cccnc1)C2 :: 5.45
2. Cn1ncc2c1Nc1ccccc1N(C(=O)c1ccc(Cl)cc1)C2 :: 6.82
3. Cc1cccc(C(=O)N2Cc3cnn(C)c3Nc3ccccc32)c1 :: 6.39

---

Target: oxytocin receptor (OXTR), hOTR (Homo sapiens)
Construct: expressed in transfected cells
Test: IP1 accumulation assay, OTR-expressing HEK-293 cells (agonist and antagonist assessment)
Format: cell-based
Conditions: agonist assessment, IP1
The following compounds are listed with their measured EC50 (OXTR agonist potency, mean ± s.d.) values.
measuredMetric: EC50 (OXTR agonist potency, mean ± s.d.) (nM)

1) Cc1cccc(C(=O)N2Cc3cnn(C)c3Nc3ccccc32)c1 :: 420
2) Cn1ncc2c1Nc1ccccc1N(C(=O)C13CC4CC(CC(C4)C1)C3)C2 :: 834
3) Cn1ncc2c1Nc1ccccc1N(C(=O)C13CC4CC(CC(F)(C4)C1)C3)C2 [WJ0807mF] :: 632.5
4) COc1cccc(C(=O)N2Cc3cnn(C)c3Nc3ccccc32)c1 :: 124.9
5) Cn1ncc2c1Nc1ccccc1N(C(=O)c1cccnc1)C2 :: 242.1
6) Cn1ncc2c1Nc1ccccc1N(C(=O)c1ccc(Cl)cc1)C2 :: 255
7) Cn1ncc2c1Nc1ccccc1N(C(=O)C13CC4CC(F)(CC(F)(C4)C1)C3)C2 [WJ0807dF] :: 667.7
8) Cn1ncc2c1Nc1ccccc1N(C(=O)c1cccc(F)c1)C2 :: 316
9) Cn1ncc2c1Nc1ccccc1N(C(=O)c1ccc(C(F)(F)F)cc1)C2 :: 193.3
10) Cn1ncc2c1Nc1ccccc1N(C(=O)c1ccccc1)C2 :: 297.7

---

Target: oxytocin receptor (OXTR), hOTR (Homo sapiens, UniProt P30559)
Sequence (P30559 whole entry): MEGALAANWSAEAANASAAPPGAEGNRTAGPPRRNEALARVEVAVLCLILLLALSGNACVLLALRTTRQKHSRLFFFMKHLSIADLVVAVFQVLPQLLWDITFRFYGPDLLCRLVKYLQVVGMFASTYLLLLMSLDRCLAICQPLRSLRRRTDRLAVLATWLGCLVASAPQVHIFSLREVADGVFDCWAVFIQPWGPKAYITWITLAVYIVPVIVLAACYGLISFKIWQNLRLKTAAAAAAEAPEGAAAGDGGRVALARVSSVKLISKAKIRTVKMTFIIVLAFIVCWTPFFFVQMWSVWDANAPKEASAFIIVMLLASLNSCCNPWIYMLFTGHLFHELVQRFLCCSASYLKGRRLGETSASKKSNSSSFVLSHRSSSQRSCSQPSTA
Test: IP1 accumulation assay, OTR-expressing HEK-293 cells (agonist and antagonist assessment)
Settings: agonist assessment, IP1, 1 h
measuredMetric: EC50 (µM)

1. Cn1ncc2c1Nc1ccccc1N(C(=O)C13CC4CC(CC(C4)C1)C3)C2 :: 4.88
2. Cn1ncc2c1Nc1ccccc1N(C(=O)c1ccccc1)C2 :: 0.847
3. Cc1ccc(C(=O)N2Cc3cnn(C)c3Nc3ccccc32)cc1 :: 0.0853
4. Cn1ncc2c1Nc1ccccc1N(C(=O)C13CC4CC(F)(CC(F)(C4)C1)C3)C2 [WJ0807dF] :: 4.15

---

Molecular target: UniProt P30559
Assay: IP1 accumulation assay, OTR-expressing HEK-293 cells (agonist and antagonist assessment)
Details: antagonist assessment vs OT 30 nM (~EC70), IP1
measuredMetric: IC50

1) Cc1ccc(CN2Cc3cnn(C)c3Nc3ccccc32)cc1C [WJ05105] :: > 10 µM
2) Cn1ncc2c1Nc1ccccc1N(C(=O)c1cccnc1)C2 [WJ0753] :: > 10 µM
3) Cn1ncc2c1Nc1ccccc1N(C(=O)c1cc(O)cc(O)c1)C2 [WJ0623] :: 1.76 µM
4) Cn1ncc2c1Nc1ccccc1N(C(=O)c1ccc(OCc3ccccc3)cc1)C2 [BzE] :: 0.179 µM
5) Cn1ncc2c1Nc1ccccc1N(C(=O)C1CC1)C2 [CA3 (KA)] :: > 10 µM
6) Cc1ccc2c(c1)N(C(=O)c1ccccc1)Cc1cnn(C)c1N2 [WJ07117Me] :: > 10 µM
7) COc1ccc2c(c1)N(C(=O)c1ccccc1)Cc1cnn(C)c1N2 [WJ07117MeO] :: > 10 µM
8) COc1cc(OC)cc(C(=O)N2Cc3cnn(C)c3Nc3ccccc32)c1 [WJ0629] :: 1.77 µM
9) Cc1ccc(S(=O)(=O)N2Cc3cnn(C)c3Nc3ccccc32)cc1 [WJ0641] :: > 10 µM
10) Cn1ncc2c1Nc1ccccc1N(C(=O)c1ccncc1)C2 [WJ0757] :: > 10 µM
11) Cn1ncc2c1Nc1ccccc1N(S(=O)(=O)c1ccc(Cl)cc1)C2 [WJ0633] :: > 10 µM
12) Cn1ncc2c1Nc1ccccc1N(C(=O)C1C(C)(C)C1(C)C)C2 [TRGA111] :: > 10 µM
13) Cn1ncc2c1Nc1ccccc1N(Cc1cc(O)cc(O)c1)C2 [WJ0627] :: > 10 µM
14) Cn1ncc2c1Nc1ccccc1N(C(=O)c1ccccn1)C2 [WJ0759] :: > 10 µM
15) Cn1ncc2c1Nc1ccccc1N(S(=O)(=O)c1ccc(C(F)(F)F)cc1)C2 [WJ0639] :: > 10 µM
16) COc1cc(CN2Cc3cnn(C)c3Nc3ccccc32)cc(OC)c1 [WJ0625] :: > 10 µM

---

measuredMetric: melting point

1) Cn1ncc2c1Nc1ccccc1N(C(=O)C1CC1)C2 :: 207 to 209 °C
2) Cc1ccc(S(=O)(=O)N2Cc3cnn(C)c3Nc3ccccc32)cc1 :: 184 to 186 °C
3) Cn1ncc2c1Nc1ccccc1N(C(=O)c1ccc3ccccc3c1)C2 :: 228 to 243 °C
4) Cn1ncc2c1Nc1ccccc1N(S(=O)(=O)c1ccc(C(F)(F)F)cc1)C2 :: 203 to 205 °C
5) COC(=O)C12CCC(C(=O)N3Cc4cnn(C)c4Nc4ccccc43)(CC1)CC2 :: 198 to 211 °C
6) COc1cccc(C(=O)N2Cc3cnn(C)c3Nc3ccccc32)c1 :: 267 to 269 °C (dec.)
7) COc1ccccc1C(=O)N1Cc2cnn(C)c2Nc2ccccc21 :: 281 to 282 °C (dec.)
8) Cn1ncc2c1Nc1ccccc1N(Cc1cc(O)cc(O)c1)C2 :: 236 to 238 °C
9) Cn1ncc2c1Nc1ccccc1N(C(=O)c1cccnc1)C2 :: 247 to 249 °C (dec.)
10) Cn1ncc2c1Nc1ccccc1N(C(=O)c1ccccc1Br)C2 :: 244 to 246 °C

---

The following compounds are listed with their measured melting point values.
measuredMetric: melting point

1. Cc1cccc(C(=O)N2Cc3cnn(C)c3Nc3ccccc32)c1 :: 254 to 256 °C
2. Cc1ccc(C(=O)N2Cc3cnn(C)c3Nc3ccccc32)cc1C :: 254 to 256 °C (dec.)
3. Cn1ncc2c1Nc1ccccc1N(S(=O)(=O)c1ccc(Cl)cc1)C2 :: 206 to 208 °C
4. Cn1ncc2c1Nc1ccccc1N(C(=O)c1cccc(Br)c1)C2 :: 218 to 220 °C
5. Cc1ccc2c(c1)N(C(=O)c1ccccc1)Cc1cnn(C)c1N2 [WJ07117Me] :: 235 to 238 °C
6. Cc1ccc(C(=O)N2Cc3cnn(C)c3Nc3ccccc32)cc1F :: 235 to 237 °C
7. Cn1ncc2c1Nc1ccccc1N(C(=O)c1ccc(C(=O)O)cc1)C2 :: > 300 °C
8. Cc1ccc(CN2Cc3cnn(C)c3Nc3ccccc32)cc1C :: 171 to 173 °C
9. Cn1ncc2c1Nc1ccccc1N(C(=O)c1cc(OCc3ccccc3)cc(OCc3ccccc3)c1)C2 :: 221 to 224 °C
10. COc1ccc2c(c1)N(C(=O)c1ccccc1)Cc1cnn(C)c1N2 [WJ07117MeO] :: 248 to 250 °C

---

measuredMetric: melting point

1. Cn1ncc2c1Nc1ccccc1N(C(=O)c1ccncc1)C2 :: 267 to 269 °C (dec.)
2. CC1CCC(C(=O)N2Cc3cnn(C)c3Nc3ccccc32)CC1 (stereo not drawn) :: 234 to 239 °C
3. Cn1ncc2c1Nc1ccccc1N(C(=O)c1cccc(F)c1)C2 :: 286 to 288 °C (dec.)
4. COc1cc(CN2Cc3cnn(C)c3Nc3ccccc32)cc(OC)c1 :: 210 to 212 °C
5. Cn1ncc2c1Nc1ccccc1N(C(=O)C1CCCC1)C2 :: > 300 °C
6. Cn1ncc2c1Nc1ccccc1N(C(=O)c1cccc3ccccc13)C2 :: 231 to 233 °C

These measurements were taken from patent US11491165B2.
